Molecular target: UniProt:P42679
Sequence (P42679 whole entry, looked up): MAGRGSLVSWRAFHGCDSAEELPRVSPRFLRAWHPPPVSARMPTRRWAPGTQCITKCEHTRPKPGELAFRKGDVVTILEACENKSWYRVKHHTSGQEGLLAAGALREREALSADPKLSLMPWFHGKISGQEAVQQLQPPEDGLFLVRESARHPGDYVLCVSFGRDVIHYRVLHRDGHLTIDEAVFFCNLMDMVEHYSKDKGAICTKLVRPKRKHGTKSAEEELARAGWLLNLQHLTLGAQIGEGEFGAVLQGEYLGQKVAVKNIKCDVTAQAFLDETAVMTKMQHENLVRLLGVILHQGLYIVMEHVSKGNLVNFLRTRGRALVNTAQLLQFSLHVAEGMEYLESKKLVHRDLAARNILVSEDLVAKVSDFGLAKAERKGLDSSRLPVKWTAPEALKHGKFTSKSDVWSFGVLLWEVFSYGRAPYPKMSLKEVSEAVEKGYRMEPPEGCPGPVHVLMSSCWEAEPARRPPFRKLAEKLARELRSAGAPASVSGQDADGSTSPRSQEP
Experiment: KINOMEscan competition binding
Details: compound 10.0 µM
observed-property: kinase still bound, per cent of control

{"smiles-data": "Cc1ccc(NC(=O)c2cccc(C(C)(C)C#N)c2)cc1Nc1ccc2ncn(C)c(=O)c2c1", "test-system": "UniProt:P42679", "endpoint-result": "100%"}
{"smiles-data": "Cc1cc([C@@H](C)Nc2ccccc2C(=O)O)c2nc(N3CCOCC3)cc(=O)n2c1", "test-system": "UniProt:P42679", "endpoint-result": "96%"}
{"smiles-data": "CCC(=O)N1CCN(c2ccc(-n3c(=O)ccc4cnc5ccc(-c6cnc7ccccc7c6)cc5c43)cc2C(F)(F)F)CC1", "test-system": "UniProt:P42679", "endpoint-result": "97%"}
{"smiles-data": "Cc1ccc2nc(NCCN)c3ncc(C)n3c2c1", "test-system": "UniProt:P42679", "endpoint-result": "100%"}
{"smiles-data": "OCCCNc1cc(-c2ccnc(Nc3cccc(Cl)c3)n2)ccn1", "test-system": "UniProt:P42679", "endpoint-result": "100%"}
{"smiles-data": "Nc1ccc(-c2ccc3ncc4ccc(=O)n(-c5cccc(C(F)(F)F)c5)c4c3c2)cn1", "test-system": "UniProt:P42679", "endpoint-result": "100%"}
{"smiles-data": "COc1cc(C(=O)NC2CCN(C)CC2)ccc1Nc1ncc2c(n1)N(C1CCCC1)CCC(=O)N2C(C)C", "test-system": "UniProt:P42679", "endpoint-result": "100%"}
{"smiles-data": "Cn1c(=O)n(-c2ccc(C(C)(C)C#N)cc2)c2c3cc(-c4cnc5ccccc5c4)ccc3ncc21", "test-system": "UniProt:P42679", "endpoint-result": "100%"}
{"smiles-data": "CCCS(=O)(=O)Nc1ccc(F)c(C(=O)c2c[nH]c3ncc(-c4ccc(Cl)cc4)cc23)c1F", "test-system": "UniProt:P42679", "endpoint-result": "100%"}

====

Biological target: MKNK2 (human)
Experiment: KINOMEscan competition binding
Conditions: compound 10.0 µM
This listing pairs molecules with measured kinase still bound, per cent of control.
observed-property: kinase still bound, per cent of control (%)

{"molecule": "C=CC(=O)Nc1cc(NC(=O)c2ccc(C)c(NC(=O)c3ccno3)c2)cc(C(F)(F)F)c1", "observed-property": "kinase still bound, per cent of control", "units-label": "%", "endpoint-result": 100}
{"molecule": "COc1cc(C(=O)NC2CCN(C)CC2)ccc1Nc1ncc2c(n1)N(C1CCCC1)C(C)CC(=O)N2C (stereo not drawn)", "observed-property": "kinase still bound, per cent of control", "units-label": "%", "endpoint-result": 100}
{"molecule": "CCOc1cc2ncc(C#N)c(Nc3ccc(OCc4ccccn4)c(Cl)c3)c2cc1NC(=O)/C=C/CN(C)C", "observed-property": "kinase still bound, per cent of control", "units-label": "%", "endpoint-result": 99}
{"molecule": "CCC(=O)N1CCN(c2ccc(-n3c(=O)ccc4cnc5ccc(-c6cnc7ccccc7c6)cc5c43)cc2C(F)(F)F)CC1", "observed-property": "kinase still bound, per cent of control", "units-label": "%", "endpoint-result": 54}
{"molecule": "Cc1ccc2nc(NCCN)c3ncc(C)n3c2c1", "observed-property": "kinase still bound, per cent of control", "units-label": "%", "endpoint-result": 90}
{"molecule": "O=C1Nc2ccc(I)cc2/C1=C/c1cc(Br)c(O)c(Br)c1", "observed-property": "kinase still bound, per cent of control", "units-label": "%", "endpoint-result": 89}
{"molecule": "Cc1ccc(NC(=O)c2cccc(C(C)(C)C#N)c2)cc1Nc1ccc2ncn(C)c(=O)c2c1", "observed-property": "kinase still bound, per cent of control", "units-label": "%", "endpoint-result": 99}
{"molecule": "C=CC(=O)Nc1cccc(Oc2nc(Nc3ccc(N4CCN(C)CC4)cc3OC)ncc2Cl)c1", "observed-property": "kinase still bound, per cent of control", "units-label": "%", "endpoint-result": 2}
{"molecule": "COc1cc(N2CCN(C)CC2)ccc1Nc1nc(N)c(C(=O)c2c(Cl)cccc2Cl)s1", "observed-property": "kinase still bound, per cent of control", "units-label": "%", "endpoint-result": 77}
{"molecule": "OCCCNc1cc(-c2ccnc(Nc3cccc(Cl)c3)n2)ccn1", "observed-property": "kinase still bound, per cent of control", "units-label": "%", "endpoint-result": 100}
{"molecule": "CCN1CCN(Cc2ccc(Nc3ncc4c(n3)N(C)c3ccccc3C(=O)N4C)cc2C(F)(F)F)CC1", "observed-property": "kinase still bound, per cent of control", "units-label": "%", "endpoint-result": 0.2}
{"molecule": "Cc1ccc(C(=O)Nc2cccc(C(F)(F)F)c2)cc1Nc1cncc(C(N)=O)c1", "observed-property": "kinase still bound, per cent of control", "units-label": "%", "endpoint-result": 100}
{"molecule": "C=CC(=O)Nc1cccc(Nc2nc(N[C@H]3CC[C@H](N(C)C)CC3)nc3c2ncn3C(C)C)c1", "observed-property": "kinase still bound, per cent of control", "units-label": "%", "endpoint-result": 39}
{"molecule": "CC[C@@H]1C(=O)N(C)c2cnc(Nc3ccc(C(=O)NC4CCN(C)CC4)cc3OC)nc2N1C1CCCC1", "observed-property": "kinase still bound, per cent of control", "units-label": "%", "endpoint-result": 100}
{"molecule": "O=C(NOC[C@H](O)CO)c1ccc(F)c(F)c1Nc1ccc(I)cc1F", "observed-property": "kinase still bound, per cent of control", "units-label": "%", "endpoint-result": 100}
{"molecule": "C[C@@H](Oc1cc(-n2cnc3ccc(CN4CCN(C)CC4)cc32)sc1C(N)=O)c1ccccc1C(F)(F)F", "observed-property": "kinase still bound, per cent of control", "units-label": "%", "endpoint-result": 23}
{"molecule": "O=C(NC1CC1)c1cccc(-c2ccc3c(NC(=O)C4CC4)n[nH]c3c2)c1", "observed-property": "kinase still bound, per cent of control", "units-label": "%", "endpoint-result": 50}
{"molecule": "CN(C)C/C=C/C(=O)Nc1cccc(Nc2ncc3c(n2)N(C)c2ccccc2C(=O)N3C)c1", "observed-property": "kinase still bound, per cent of control", "units-label": "%", "endpoint-result": 0.3}
{"molecule": "N#Cc1c(NC(=O)c2cccc3ccccc23)sc2c1CCCC2", "observed-property": "kinase still bound, per cent of control", "units-label": "%", "endpoint-result": 92}
{"molecule": "COc1cc(C(=O)NC2CCN(C)CC2)ccc1Nc1ncc2c(n1)N(C1CCCC1)CCC(=O)N2C(C)C", "observed-property": "kinase still bound, per cent of control", "units-label": "%", "endpoint-result": 100}
{"molecule": "Cn1c(=O)n(-c2ccc(C(C)(C)C#N)cc2)c2c3cc(-c4cnc5ccccc5c4)ccc3ncc21", "observed-property": "kinase still bound, per cent of control", "units-label": "%", "endpoint-result": 100}
{"molecule": "O=C(O)c1ccc(Nc2ncc3c(n2)-c2ccc(Cl)cc2C(c2c(F)cccc2F)=NC3)cc1", "observed-property": "kinase still bound, per cent of control", "units-label": "%", "endpoint-result": 84}
{"molecule": "Cc1cc([C@@H](C)Nc2ccccc2C(=O)O)c2nc(N3CCOCC3)cc(=O)n2c1", "observed-property": "kinase still bound, per cent of control", "units-label": "%", "endpoint-result": 92}
